- Test system: HCT-116 colon
- EXPERIMENT NOTES: NCI-60 one-dose screen, 48 h (100 = growth as untreated, 0 = no growth, -100 = all killed)
- MEASUREMENT CONDITIONS: 10 µM unless noted
This is part of a sample that, as a whole, favours compounds with a hit. Of some 83,000 tested, about 20% had one in any assay.
Mark MET for growth under 70%, NOT MET if at or over.

Solved entries:
Is growth of CC1CN(CC(O)c2ccc(Br)cc2)CCO1 (stereo unspecified) strictly below 70%?
NOT MET

Just wondering, is growth of Cc1n(Cc2ccc3ccccc3c2)cc[n+]1Cc1ccc2ccccc2c1 below 70%?
MET

# TODO verify growth < 70% strictly for this compound: O=C(COc1ccc(/C=C2\Oc3ccc4ccccc4c3C2=O)cc1)c1ccc([N+](=O)[O-])cc1
NOT MET

New cases:
Field: below-cutoff. Rule: recorded growth strictly less than 70%. Subject: CC(=O)Nc1cc2c3c(cccc3c1)-c1ccccc1-2
NOT MET

Could you please tell me whether growth recorded for O=CN1N=C(c2ccc(Cl)cc2)CC1c1cccc(Nc2ccnc3cc(Cl)ccc23)c1 (stereo unspecified) is less than 70%?
MET

Where these numbers come from: PubChem BioAssay (NCI)
